# targetOfAssay: T1, human PD-L1 (human, UniProt Q9NZQ7 19-290)
# T1 construct: whole, on cells; also called hPD-L1; CD274
# T1 sequence (Q9NZQ7 19-290): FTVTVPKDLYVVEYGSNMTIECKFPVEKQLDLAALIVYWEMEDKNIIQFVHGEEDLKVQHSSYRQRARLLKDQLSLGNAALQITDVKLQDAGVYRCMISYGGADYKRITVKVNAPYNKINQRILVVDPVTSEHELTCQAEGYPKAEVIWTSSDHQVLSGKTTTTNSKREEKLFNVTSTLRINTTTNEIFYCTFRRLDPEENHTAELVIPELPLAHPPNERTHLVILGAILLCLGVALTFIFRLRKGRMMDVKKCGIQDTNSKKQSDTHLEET
# testName: FACS, CHO-K1/hPD-L1 cells
Would you mind telling me the reported Maximum MFI of each entry?
Form entry: enter the amount, then its unit.

Problem: Tell us which Maximum MFI value is on record for PR006245 (antibody, human IgG1, V domains shown, HCAb; human IgG1 Fc; no light chain) VH: QVQLVESGGGVVQPGMSLRLSCAASGFDFSSYGMYWVRQAPGKGQEWVASIRYTGTEKHYADSVKGRFTISRDNSKNTLYLEMNSLRVEDTAVYYCAKNRAIFGVVPDASDIRGQGTMVTVSS
Result: 405000 MFI

Problem: Name the recorded Maximum MFI of the item PR006248 (antibody, human IgG1, V domains shown, HCAb; human IgG1 Fc; no light chain) VH: QVQLVESGGGVVQPGMSLRLSCAASGFDFSSYGMYWVRQAPGKGQEWVASIRYTGTEKHYADSVKGRFTISRDNSKNTLYLEMNSLRVEDTAVYYCAKNRALFGVIPDDSDIRGQGTMVTVSS in your answer.
Result: 404000 MFI

Problem: Note Maximum MFI for the binder shown: PR005878 (antibody, human IgG1, V domains shown, HCAb; human IgG1 Fc; no light chain) VH: QVQLVESGGGVVQPGMSLRLSCAASGFTFSSYGMYWVRQAPGKGQEWVASIRYTGTEKHYADSVKGRFTISRDNSKNTLYLEMNSLRVEDTAVYYCAKNRALFGVIPDDSDIRGQGTMVTVSS
Result: 419000 MFI

Problem: Recall and state the measured Maximum MFI for PR000960 (antibody, human IgG1, V domains shown, Fully human heavy-chain-only antibody (HCAb): VH fused to human IgG1 Fc; no light chain) VH: QVQLVESGGGVVQPGMSLRLSCAASGFNFSNYGMYWVRQAPGKGQEWVAIIWYDGTKKHYADSVKGRFTISRDNSKNTLYLEMNSLRVEDTAVYYCAKNRAIFGVVPDASDIRGQGTMVTVSS .
Result: 23700 MFI

Problem: Quickly give me recorded Maximum MFI for PR006247 (antibody, human IgG1, V domains shown, HCAb; human IgG1 Fc; no light chain) VH: QVQLVESGGGVVQPGMSLRLSCAASGFDFSSYGMYWVRQAPGKGQEWVASIRYTGTEKHYADSVKGRFTISRDNSKNTLYLEMNSLRVEDTAVYYCAKNRALFGVIPDASDIRGQGTMVTVSS
Result: 410000 MFI

Problem: Query Maximum MFI for PR006246 (antibody, human IgG1, V domains shown, HCAb; human IgG1 Fc; no light chain) VH: QVQLVESGGGVVQPGMSLRLSCAASGFDFSSYGMYWVRQAPGKGQEWVASIRYTGTEKHYADSVKGRFTISRDNSKNTLYLEMNSLRVEDTAVYYCAKNRAIFGVIPDDSDIRGQGTMVTVSS
Result: 396000 MFI
